I'd be grateful if you could share measured relative quantity of adhered cells in relationship to peptide SEQ ID NO:9 for these entries.
Target Entity: binding of the integrin α4 β1 to VCAM (Homo sapiens, UniProt P05556+P13612)
Construct: endogenous in cells; host or cells: Ramos (human B-cell line) for endogenous α4β1; CHO cells stably transfected with human VCAM cDNA for the counter-receptor
Sequence (P13612 34-1032): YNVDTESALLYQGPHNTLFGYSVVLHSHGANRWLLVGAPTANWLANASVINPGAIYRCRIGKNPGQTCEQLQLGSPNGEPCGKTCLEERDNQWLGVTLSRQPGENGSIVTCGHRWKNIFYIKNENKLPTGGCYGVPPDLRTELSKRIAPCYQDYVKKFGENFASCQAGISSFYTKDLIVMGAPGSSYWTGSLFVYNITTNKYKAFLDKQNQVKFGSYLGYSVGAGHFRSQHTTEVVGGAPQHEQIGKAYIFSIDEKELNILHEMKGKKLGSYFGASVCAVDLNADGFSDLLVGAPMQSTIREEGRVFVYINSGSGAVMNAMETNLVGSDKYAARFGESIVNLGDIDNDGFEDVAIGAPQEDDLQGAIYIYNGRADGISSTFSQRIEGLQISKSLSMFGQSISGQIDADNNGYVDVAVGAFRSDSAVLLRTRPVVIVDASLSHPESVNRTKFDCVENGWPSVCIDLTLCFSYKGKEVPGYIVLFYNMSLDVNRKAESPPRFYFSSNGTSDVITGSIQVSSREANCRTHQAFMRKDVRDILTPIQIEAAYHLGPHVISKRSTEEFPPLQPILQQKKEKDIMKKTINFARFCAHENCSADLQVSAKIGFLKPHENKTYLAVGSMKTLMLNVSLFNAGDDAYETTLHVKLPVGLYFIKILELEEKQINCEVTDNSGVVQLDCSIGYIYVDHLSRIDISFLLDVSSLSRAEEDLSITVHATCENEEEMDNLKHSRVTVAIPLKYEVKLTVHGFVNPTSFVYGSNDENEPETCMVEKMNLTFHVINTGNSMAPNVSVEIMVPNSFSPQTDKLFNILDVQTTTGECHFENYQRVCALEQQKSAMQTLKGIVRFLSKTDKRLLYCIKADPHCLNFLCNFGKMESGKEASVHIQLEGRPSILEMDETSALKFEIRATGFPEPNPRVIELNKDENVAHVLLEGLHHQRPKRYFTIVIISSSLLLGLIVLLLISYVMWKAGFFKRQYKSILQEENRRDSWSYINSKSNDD
Sequence (P05556 21-798): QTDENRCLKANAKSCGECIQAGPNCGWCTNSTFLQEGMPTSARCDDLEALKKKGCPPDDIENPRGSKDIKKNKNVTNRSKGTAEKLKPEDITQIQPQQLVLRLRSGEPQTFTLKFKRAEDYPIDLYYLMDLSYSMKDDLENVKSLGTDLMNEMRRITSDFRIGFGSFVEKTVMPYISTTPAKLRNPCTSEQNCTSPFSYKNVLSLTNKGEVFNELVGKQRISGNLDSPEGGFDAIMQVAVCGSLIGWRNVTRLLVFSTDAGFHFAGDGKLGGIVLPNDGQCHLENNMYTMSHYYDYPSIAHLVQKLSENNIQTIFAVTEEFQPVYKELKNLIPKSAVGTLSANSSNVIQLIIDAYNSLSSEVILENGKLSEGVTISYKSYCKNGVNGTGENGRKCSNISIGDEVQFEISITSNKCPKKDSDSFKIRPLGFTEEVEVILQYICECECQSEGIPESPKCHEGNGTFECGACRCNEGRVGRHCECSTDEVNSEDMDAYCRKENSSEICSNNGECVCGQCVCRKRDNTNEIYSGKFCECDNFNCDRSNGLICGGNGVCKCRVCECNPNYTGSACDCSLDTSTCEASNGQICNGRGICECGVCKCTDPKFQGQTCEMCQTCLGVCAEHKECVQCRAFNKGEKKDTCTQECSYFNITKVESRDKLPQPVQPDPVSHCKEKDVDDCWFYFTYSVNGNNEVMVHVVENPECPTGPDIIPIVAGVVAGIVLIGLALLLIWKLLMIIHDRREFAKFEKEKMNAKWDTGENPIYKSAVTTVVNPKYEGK
Method Description: Cell-cell assay: 35S-labelled Ramos cells binding to VCAM expressing CHO cells
Type: cell-based
Measurement Parameters: single concentration at which SEQ ID NO:9 gives approximately 50% inhibition of adhesion; SEQ ID NO:9 = 1.00; >2.00 indicates little or no inhibition of VCAM-α4 β1 binding
Where no end group is shown, it is not given here.
The answer should be a number; do not append a unit.

Inquiry: Retrieve relative quantity of adhered cells in relationship to peptide SEQ ID NO:9 on binding of the integrin α4 β1 to VCAM (Homo sapiens, UniProt P05556+P13612); query GPQWLDVP-NH2 [SEQ ID NO:9 E→Q, Gly-ProoGln-Trp-Leu-Asp-Val-Pro-amide]
Reply text: 0.93

Inquiry: Give relative quantity of adhered cells in relationship to peptide SEQ ID NO:9 only, for GPPWLDVP-NH2 [SEQ ID NO:9 E→P, Gly-Pro-Pro-Trp-Leu-Asp-Val-Pro-amide] , using binding of the integrin α4 β1 to VCAM (Homo sapiens, UniProt P05556+P13612) data.
Reply text: 0.98

Inquiry: Name the recorded relative quantity of adhered cells in relationship to peptide SEQ ID NO:9 of GPEWLEVP-NH2 [SEQ ID NO:9 D→E, Gly-Pro-Glu-Trp-Leu-Glu-Val-Pro-amide] , assay system binding of the integrin α4 β1 to VCAM (Homo sapiens, UniProt P05556+P13612).
Reply text: 1.77

Inquiry: Please report relative quantity of adhered cells in relationship to peptide SEQ ID NO:9 with binding of the integrin α4 β1 to VCAM (Homo sapiens, UniProt P05556+P13612) for item GPVWLDVP-NH2 [SEQ ID NO:9 E→V, Gly-Pro-Val-Trp-Leu-Asp-Val-Pro-amide] .
Reply text: 1.04

Inquiry: State the measured relative quantity of adhered cells in relationship to peptide SEQ ID NO:9 (binding of the integrin α4 β1 to VCAM (Homo sapiens, UniProt P05556+P13612)) of GPEDLDVP-NH2 [SEQ ID NO:9 W→D, Gly-Pro-Glu-Asp-Leu-Asp-Val-Pro-amide]
Reply text: 1.62

Inquiry: Find relative quantity of adhered cells in relationship to peptide SEQ ID NO:9 for GPWWLDVP-NH2 [SEQ ID NO:9 E→W, Gly-Pro-Trp-Trp-Leu-Asp-Val-Pro-amide] on binding of the integrin α4 β1 to VCAM (Homo sapiens, UniProt P05556+P13612) and write it down.
Reply text: 1.17

Inquiry: Lab note: binding of the integrin α4 β1 to VCAM (Homo sapiens, UniProt P05556+P13612) assay, enter relative quantity of adhered cells in relationship to peptide SEQ ID NO:9 for GPLWLDVP-NH2 [SEQ ID NO:9 E→L, Gly-Pro-Leu-Trp-Leu-Asp-Val-Pro-amide] here
Reply text: 1.62

Inquiry: Find the measured relative quantity of adhered cells in relationship to peptide SEQ ID NO:9 of GPIWLDVP-NH2 [SEQ ID NO:9 E→I, Gly-Pro-Ile-Trp-Leu-Asp-Val-Pro-amide] with binding of the integrin α4 β1 to VCAM (Homo sapiens, UniProt P05556+P13612) as test system.
Reply text: 1.44

Inquiry: // fetch relative quantity of adhered cells in relationship to peptide SEQ ID NO:9; item: GPNWLDVP-NH2 [SEQ ID NO:9 E→N, Gly-Pro-Asn-Trp-Leu-Asp-Val-Pro-amide] ; system: binding of the integrin α4 β1 to VCAM (Homo sapiens, UniProt P05556+P13612)
Reply text: 0.94

Inquiry: Write down measured relative quantity of adhered cells in relationship to peptide SEQ ID NO:9 (binding of the integrin α4 β1 to VCAM (Homo sapiens, UniProt P05556+P13612)) for this substance. GPEWLDHP-NH2 [SEQ ID NO:9 V→H]
Reply text: 1.77

Inquiry: Specify the recorded relative quantity of adhered cells in relationship to peptide SEQ ID NO:9 for GPEWLDEP-NH2 [SEQ ID NO:9 V→E, Gly-Pro-Glu-Trp-Leu-Asp-Glu-Pro-amide] , system: binding of the integrin α4 β1 to VCAM (Homo sapiens, UniProt P05556+P13612).
Reply text: 2.33

Inquiry: Under binding of the integrin α4 β1 to VCAM (Homo sapiens, UniProt P05556+P13612), report relative quantity of adhered cells in relationship to peptide SEQ ID NO:9 for GPAWLDVP-NH2 [SEQ ID NO:9 E→A, Gly-Pro-Ala-Trp-Leu-Asp-Val-Pro-amide]
Reply text: 1.47

Inquiry: Write down measured relative quantity of adhered cells in relationship to peptide SEQ ID NO:9 (binding of the integrin α4 β1 to VCAM (Homo sapiens, UniProt P05556+P13612)) for this substance. GPEWLHVP-NH2 [SEQ ID NO:9 D→H, Gly-Pro-Glu-Trp-Leu-His-Val-Pro-amide]
Reply text: 1.74

Inquiry: Enter measured relative quantity of adhered cells in relationship to peptide SEQ ID NO:9, system binding of the integrin α4 β1 to VCAM (Homo sapiens, UniProt P05556+P13612), for the substance shown: GPEWLDWP-NH2 [SEQ ID NO:9 V→W, Gly-Pro-Glu-Trp-Leu-Asp-Trp-Pro-amide]
Reply text: 1.08

Inquiry: Consider the substance GPEWLDVP-NH2 [SEQ ID NO:9, Gly-Pro-Glu-Trp-Leu-Asp-Val-Pro-amide] tested on binding of the integrin α4 β1 to VCAM (Homo sapiens, UniProt P05556+P13612); state its relative quantity of adhered cells in relationship to peptide SEQ ID NO:9.
Reply text: 1.00

Inquiry: Jot down relative quantity of adhered cells in relationship to peptide SEQ ID NO:9 (binding of the integrin α4 β1 to VCAM (Homo sapiens, UniProt P05556+P13612)) of GPEWLDRP-NH2 [SEQ ID NO:9 V→R] .
Reply text: 1.52
